The reported measurements were obtained from patent US20110217237A1.

TARGET_UNDER_TEST: T1, human DLL4 extracellular domain (human, UniProt Q9NR61 27-529)
T1 construct: purified recombinant ECD; biotin-labelled or 6xHis-tagged depending on the assay; also called huDLL4 ECD; hu DLL4 ECD
EXPERIMENT_DESCRIPTION: SPR (Biacore)
RECORDED_ENDPOINT: pKd
Scale note: pKd = -log10(concentration in M).

Record request: pKd value, item h38H12.11 (antibody, V domains shown, humanized IgG; also called VH.1b/VL.1b 38H12) VH: EVQLVESGGGVVQPGRSLRLSCAASGFTFSNYGMYWVRQAPGKGLEWVAFISHGGGITYYRDSVKGRFTISRDNSKNTLYLQMNSLRAEDTAVYYCAALNWELGIDYWGQGTMVTVSS VL: DIQMTQSPSSLSASVGDRVTITCRASEDIYSNLAWYQQKPGKAPKLLIYAANRLQDGVPSRFSGSGSGTDYTLTISSLQPEDFATYYCLQGSKFPLTFGQGTKLEIKR
9.26
